The reported measurements were obtained from patent US20250011413A1.

In this section, each of the binders is paired with its reported % inhibition of 14C-serotonin release (SRA), HIT-Positive Patient #3 serum, scFv 50 µg/mL.
ASSAYED SYSTEM: T1, PF4/heparin complex (human PF4 complexed with heparin) (human, UniProt P02776 32-101)
T1 sequence: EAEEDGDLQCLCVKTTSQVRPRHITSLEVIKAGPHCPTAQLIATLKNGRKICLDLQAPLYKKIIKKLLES
ASSAY TEXT: cell-based or functional assay
State just the number; it will be interpreted in %.

Wildtype scFv (KKO-derived single chain variable fragment) (scFv, VL-(G4S)3 linker-VH; expressed in E. coli BL21 from pADL-22c, purified on Ni-NTA as histidine-tagged scFv, about 28 kDa; also called WT; KKO-scFv; not shown: histidine tag from the pADL-22c vector) scFv: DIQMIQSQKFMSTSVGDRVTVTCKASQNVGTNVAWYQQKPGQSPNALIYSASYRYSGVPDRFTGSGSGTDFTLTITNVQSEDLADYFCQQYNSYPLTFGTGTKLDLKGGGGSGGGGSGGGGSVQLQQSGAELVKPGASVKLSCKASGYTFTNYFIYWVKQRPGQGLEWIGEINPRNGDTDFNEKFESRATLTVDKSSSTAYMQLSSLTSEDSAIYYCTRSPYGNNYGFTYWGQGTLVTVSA
4.8
Mutant B scFv, scFv(R18K, N152K, D180N) (scFv, VL-linker-VH; histidine-tagged, from E. coli BL21; also called Mut B; not shown: histidine tag from the pADL-22c vector) scFv: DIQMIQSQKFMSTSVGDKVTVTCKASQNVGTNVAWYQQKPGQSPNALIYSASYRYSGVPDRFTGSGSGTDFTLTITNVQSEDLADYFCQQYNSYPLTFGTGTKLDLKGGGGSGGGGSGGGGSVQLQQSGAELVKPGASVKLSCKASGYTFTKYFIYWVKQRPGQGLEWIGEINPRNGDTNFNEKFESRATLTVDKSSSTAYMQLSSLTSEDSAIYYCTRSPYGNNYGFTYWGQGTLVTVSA
6

# input for lookup
% inhibition of 14C-serotonin release (SRA), HIT-Positive Patient #3 serum, scFv 50 µg/mL for Mutant D scFv, scFv(Y156H) (scFv, VL-linker-VH; histidine-tagged, from E. coli BL21; also called Mut D; not shown: histidine tag from the pADL-22c vector) scFv: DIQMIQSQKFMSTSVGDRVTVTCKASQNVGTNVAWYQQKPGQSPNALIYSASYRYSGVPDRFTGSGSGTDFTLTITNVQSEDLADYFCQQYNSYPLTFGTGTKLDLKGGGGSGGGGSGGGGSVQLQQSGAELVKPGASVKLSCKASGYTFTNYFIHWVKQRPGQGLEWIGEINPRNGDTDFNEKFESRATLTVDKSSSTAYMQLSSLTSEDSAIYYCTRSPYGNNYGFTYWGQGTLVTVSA is 10.8
